Values compiled from paper PMC10385442.

# System: E. coli (G − ve) (ATCC 8739)
# protocol details: Disc diffusion antibacterial susceptibility
# Assay type: cell-based, Escherichia coli
# run conditions: E. coli (ATCC 8739), triplicate, NI = No inhibition
Reported Diameter of Inhibition Zones values follow for various compounds
Please reply with the bare figure in mm and do not write the unit itself.

Example entries and their recorded answers appear below.
CCCCCCCCCCCC(=O)O[C@H]1[C@@H](OC(=O)CCCCCCCCCCC)[C@@H](COC(=O)c2ccccc2Br)O[C@@H](OC)[C@@H]1OC(=O)CCCCCCCCCCC = 11.00
CO[C@@H]1O[C@H](COC(=O)c2ccccc2Br)[C@H](OC(=O)c2ccc(C(C)(C)C)cc2)[C@H](OC(=O)c2ccc(C(C)(C)C)cc2)[C@H]1OC(=O)c1ccc(C(C)(C)C)cc1 = 8.50

Switching to the query record.
In: Record request: Diameter of Inhibition Zones value, item CO[C@@H]1O[C@H](COC(=O)c2ccccc2Br)[C@H](OC(=O)c2ccc(Cl)cc2)[C@H](OC(=O)c2ccc(Cl)cc2)[C@H]1OC(=O)c1ccc(Cl)cc1
Out: 11.25

----------
Form field: Diameter of Inhibition Zones (one value per entry).
# System: S. typhi (G − ve) (AE 14612)
# protocol details: Disc diffusion antibacterial susceptibility
# Assay type: cell-based, Salmonella typhi
# run conditions: S. typhi (AE 14612), triplicate, NI = No inhibition
# Text: The methodology employed to determine the antibacterial properties of the synthesized compounds (each compound dissolved in dimethyl sulfoxide 7% DMSO) involved the use of the disc diffusion approach. This was done following a previously described method with slight modifications. First, an inoculum was obtained from a bacterial colony and diluted to a concentration of 0.5 McFarland standard in sterile saltwater containing 0.9% NaCl. […]

CO[C@@H]1O[C@H](COC(=O)c2ccccc2Br)[C@H](OC(=O)c2ccc(C(C)(C)C)cc2)[C@H](OC(=O)c2ccc(C(C)(C)C)cc2)[C@H]1OC(=O)c1ccc(C(C)(C)C)cc1 = 9.00 ± 0.3 mm

In: Given CO[C@@H]1O[C@H](COC(=O)c2ccccc2Br)[C@H](O)[C@H](O)[C@H]1O , state its recorded Diameter of Inhibition Zones.
Out: 11.25 ± 0.2 mm

----------
# System: B. subtilis (G + ve) (ATCC 6633)
# protocol details: Disc diffusion antibacterial susceptibility
# Type: cell-based, Bacillus subtilis
# run conditions: B. subtilis (ATCC 6633), triplicate, NI = No inhibition
experimental endpoint: Diameter of Inhibition Zones

In: Under B. subtilis (G + ve) (ATCC 6633): Diameter of Inhibition Zones value of CO[C@@H]1O[C@H](COC(=O)c2ccccc2Br)[C@H](OC(=O)c2ccc(C(C)(C)C)cc2)[C@H](OC(=O)c2ccc(C(C)(C)C)cc2)[C@H]1OC(=O)c1ccc(C(C)(C)C)cc1 [Compound 7] ?
Out: 7.75 ± 0.1 mm
